- Format: in vivo, mice
- Measurement context: protocol I: 100 μmol/kg × 10 daily i.p.; 21 d; mean ± SD
Quantity kind: body weight (percent control)

Cn1ccc(C(=O)NCCOCCNC(=O)c2ccn(C)c(=O)c2O)c(O)c1=O = 101
Cn1ccc(C(=O)NCCN(CCNC(=O)c2ccn(C)c(=O)c2O)CCNC(=O)c2ccn(C)c(=O)c2O)c(O)c1=O = 106
Cn1ccc(C(=O)NCCCCCNC(=O)c2ccn(C)c(=O)c2O)c(O)c1=O = 102
Cn1ccc(C(=O)NCCN(CCNC(=O)c2ccn(C)c(=O)c2O)CCN(CCNC(=O)c2ccn(C)c(=O)c2O)CCNC(=O)c2ccn(C)c(=O)c2O)c(O)c1=O = 87

Reference source: patent US5892029A
